Biological target: Serotonin 2 (5-HT2) receptor (Rattus norvegicus, UniProt P30994+P08909+P14842)
Test: Binding affinity towards serotonin 5-HT2 receptor was determined in rat cortex using [3H]spiperone as ligand
property_measured: IC50 (nM)

-- ask Using known records, supply IC50 for O=C1N(CCCCN2CCN(c3csc4ccccc34)CC2)CSC12CCCC2
-- reply 16

-- ask Given the compound CC1(C)SCN(CCCCN2CCN(c3cn(-c4ccc(F)cc4)c4ccccc34)CC2)C1=O , write its reported IC50.
-- reply 53

-- ask Look up IC50 of O=C1N(CCCCN2CCN(c3cn(-c4ccc(F)cc4)c4ccccc34)CC2)CSC12CCCCC2 and report it.
-- reply 142

-- ask Given the compound O=C1N(CCCCN2CCN(c3nsc4ccccc34)CC2)CSC12CCCCC2 , write its reported IC50.
-- reply 18

(P) CC(C)(O)C1SCN(CCCCN2CCN(c3nsc4ccccc34)CC2)C1=O (configuration not stated)
(Q) Cc1cccc(N2CCN(CCCCN3C(=O)C(C)(C)SC3(C)C)CC2)c1
(R) CC1SC(C)(C)C(=O)N1CCCCN1CCN(c2nsc3ccccc23)CC1 (configuration not stated)
(S) O=C1CSCN1CCCCN1CCN(c2nc3ccccc3s2)CC1
-- ask Order the 4 compounds from highest to lowest IC50. Dear reader, please state the labels in the requested order.
-- reply S, Q, P, R

(A) O=C1N(CCCCN2CCN(c3cn(-c4ccccc4)c4ccccc34)CC2)CSC12CCCCC2
(B) CC1SCN(CCCCN2CCN(c3nsc4ccccc34)CC2)C1=O (configuration not stated)
(C) CC1(C)SCN(CCCCN2CCN(c3ccc4ccccc4n3)CC2)C1=O
(D) CC1SC(C)(C)C(=O)N1CCCCN1CCN(c2csc3cc(Cl)ccc23)CC1 (configuration not stated)
-- ask # desc sort on IC50 across 4 compounds Please, when replying, give the labels in the order that was requested.
-- reply D, C, A, B

(A) Cc1cccc(N2CCN(CCCCN3CSC(C)(C)C3=O)CC2)c1C
(B) CC1(C)SC(C)(C)N(CCCCN2CCN(c3nsc4ccccc34)CC2)C1=O
-- ask Of the pair A and B , name the member with the lesser recorded IC50. Your answer should be the label attached to the chosen record.
-- reply B

(a) CC1SC2(CCCC2)C(=O)N1CCCCN1CCN(c2cn(-c3ccccc3)c3ccccc23)CC1 (configuration not stated)
(b) O=C1N(CCCCN2CCN(c3nsc4ccccc34)CC2)CSC12Cc1ccccc1C2
(c) O=C1N(CCCCN2CCN(c3nsc4ccccc34)CC2)CSC12CCCC2
(d) CC1SC(C)(C)C(=O)N1CCCCN1CCN(c2csc3cc(F)ccc23)CC1 (configuration not stated)
(e) CC1(C)SCC(=O)N1CCCCN1CCN(c2nsc3ccccc23)CC1
-- ask // ranking: key=IC50, reverse=True Respond with an ordered listing of the labels, as requested.
-- reply b, a, d, e, c
(b: 1110 nM, a: 98.1 nM, d: 56 nM, e: 12 nM, c: 3 nM)

(a) CC1(C)SCN(CCCCN2CCN(c3nsc4ccccc34)CC2)C1=O
(b) CC1SC(C)(C)C(=O)N1CCCCN1CCN(c2cn(-c3ccccc3)c3ccccc23)CC1 (configuration not stated)
-- ask Could you tell me which of these two has the smaller IC50 figure? First: a Second: b Return value: the label identifying the chosen record.
-- reply a
(a: 1 nM, b: 186 nM)
